Assay protocol: Cytotoxicity assay
Format: cell-based
Condition details: human, n = 4
Each entry below carries its reported CC50 at 72 h.

{"Compound structure": "COC(=O)c1cc([N+](=O)[O-])c2sc(N3CCC4(CC3)OC[C@H](C)O4)nc(=O)c2c1", "CC50 at 72 h": "> 119 µM"}
{"Compound structure": "C[C@H]1COC2(CCN(c3nc(=O)c4cc(C(=O)OCCI)cc([N+](=O)[O-])c4s3)CC2)O1", "CC50 at 72 h": "78.2 µM"}
{"Compound structure": "C[C@H]1COC2(CCN(c3nc(=O)c4cc(C(=O)N(C)C)cc([N+](=O)[O-])c4s3)CC2)O1", "CC50 at 72 h": "> 115 µM"}
{"Compound structure": "C[C@H]1COC2(CCN(c3nc(=O)c4cccc([N+](=O)[O-])c4s3)CC2)O1", "CC50 at 72 h": "> 138 µM"}

* * *

Each entry below carries its reported CC50 at 72 h.
Assay protocol: Cytotoxicity assay
Format: cell-based
Condition details: human, n = 4

{"Compound": "C[C@H]1COC2(CCN(c3nc(=O)c4cc(Br)cc([N+](=O)[O-])c4s3)CC2)O1", "CC50 at 72 h": "> 113 µM"}
{"Compound": "C[C@H]1COC2(CCN(c3nc(=O)c4cc(C#N)cc([N+](=O)[O-])c4s3)CC2)O1", "CC50 at 72 h": "> 129 µM"}
{"Compound": "CCOC(=O)c1cc([N+](=O)[O-])c2sc(N3CCC4(CC3)OC[C@H](C)O4)nc(=O)c2c1", "CC50 at 72 h": "> 115 µM"}
{"Compound": "CON(C)C(=O)c1cc([N+](=O)[O-])c2sc(N3CCC4(CC3)OC[C@H](C)O4)nc(=O)c2c1", "CC50 at 72 h": "> 111 µM"}
{"Compound": "CC(C)OC(=O)c1cc([N+](=O)[O-])c2sc(N3CCC4(CC3)OC[C@H](C)O4)nc(=O)c2c1", "CC50 at 72 h": "> 111 µM"}
{"Compound": "C[C@H]1COC2(CCN(c3nc(=O)c4cc(C(=O)OCCOC(=O)c5cc([N+](=O)[O-])c6sc(N7CCC8(CC7)OC[C@H](C)O8)nc(=O)c6c5)cc([N+](=O)[O-])c4s3)CC2)O1", "CC50 at 72 h": "> 59.4 µM"}
{"Compound": "C[C@H]1COC2(CCN(c3nc(=O)c4cc(C(F)(F)F)cc([N+](=O)[O-])c4s3)CC2)O1 [Compound 1, reference compound]", "CC50 at 72 h": "> 116 µM"}

* * *

Each entry below carries its reported Eh (hepatic extraction ratio).
Test system: human liver microsomes
Assay protocol: Microsomal stability assay
Type: in vitro ADME
Condition details: fu = 1, Q = 20.0 mL∙min-1∙kg-1, human

{"Compound structure": "C[C@H]1COC2(CCN(c3nc(=O)c4cc(I)cc([N+](=O)[O-])c4s3)CC2)O1", "Eh (hepatic extraction ratio) / %": 48.8}
{"Compound structure": "C[C@H]1COC2(CCN(c3nc(=O)c4cc(Br)cc([N+](=O)[O-])c4s3)CC2)O1", "Eh (hepatic extraction ratio) / %": 47.9}
{"Compound structure": "COC(=O)c1cc([N+](=O)[O-])c2sc(N3CCC4(CC3)OC[C@H](C)O4)nc(=O)c2c1", "Eh (hepatic extraction ratio) / %": 94.8}
{"Compound structure": "CON(C)C(=O)c1cc([N+](=O)[O-])c2sc(N3CCC4(CC3)OC[C@H](C)O4)nc(=O)c2c1", "Eh (hepatic extraction ratio) / %": 35.5}

* * *

Test system: Mycobacterium vaccae (JMRC:STI:10670)
Assay protocol: MIC determination
Assay type: cell-based
Condition details: ratio between CC50 (HeLa) and MIC M. vaccae

{"Compound": "C[C@H]1COC2(CCN(c3nc(=O)c4cc(C(F)(F)F)cc([N+](=O)[O-])c4s3)CC2)O1 [Compound 1, reference compound]", "Selectivity index": "> 31248"}
{"Compound": "CON(C)C(=O)c1cc([N+](=O)[O-])c2sc(N3CCC4(CC3)OC[C@H](C)O4)nc(=O)c2c1", "Selectivity index": "> 8"}
{"Compound": "C[C@H]1COC2(CCN(c3nc(=O)c4cc(C(=O)OCCI)cc([N+](=O)[O-])c4s3)CC2)O1", "Selectivity index": 28}
{"Compound": "C[C@H]1COC2(CCN(c3nc(=O)c4cc(C(N)=O)cc([N+](=O)[O-])c4s3)CC2)O1", "Selectivity index": "> 2"}
{"Compound": "CC(C)OC(=O)c1cc([N+](=O)[O-])c2sc(N3CCC4(CC3)OC[C@H](C)O4)nc(=O)c2c1", "Selectivity index": "> 500"}
{"Compound": "C[C@H]1COC2(CCN(c3nc(=O)c4cc(C(=O)NCCO)cc([N+](=O)[O-])c4s3)CC2)O1", "Selectivity index": "> 4"}
{"Compound": "CCOC(=O)c1cc([N+](=O)[O-])c2sc(N3CCC4(CC3)OC[C@H](C)O4)nc(=O)c2c1", "Selectivity index": "> 64"}
{"Compound": "C[C@H]1COC2(CCN(c3nc(=O)c4cc(C(=O)O)cc([N+](=O)[O-])c4s3)CC2)O1", "Selectivity index": "> 125"}
{"Compound": "C[C@H]1COC2(CCN(c3nc(=O)c4cc(I)cc([N+](=O)[O-])c4s3)CC2)O1", "Selectivity index": "> 16114"}
